Sourced from paper PMC6039436

Exercise: for every item that follows, state its recorded Radioactivity in Liver.
Test: Biodistribution in ddY mice
Format: in vivo
Conditions: i.v. co-injection, 24 h
Marks after values point to notes of the source that are not given here.

[
  {
    "compound": "COCCOc1ccc2c(c1)ncn2-c1ccc2cccc(N3CCC(NC(=O)c4cccc([77Br])c4)CC3)c2n1 [[^77Br]3]",
    "Radioactivity in Liver": "0.18 (0.04) %injected dose/gram tissue"
  },
  {
    "compound": "COCCOc1ccc2c(c1)ncn2-c1ccc2c([125I])ccc(N3CCC(N)CC3)c2n1 [[^125I]4, reference compound]",
    "Radioactivity in Liver": "0.29 (0.08) %injected dose/gram tissue"
  }
]

Now take the following compound into account.
Quick check: Radioactivity in Liver of COCCOc1ccc2c(c1)ncn2-c1ccc2c([77Br])ccc(N3CCC(N)CC3)c2n1 [[^77Br]2] ?
0.29 (0.08) %injected dose/gram tissue

----------
Exercise: for every item that follows, state its recorded Radioactivity in Small intestine.
Experiment: Biodistribution in ddY mice
Assay type: in vivo
Settings: i.v. co-injection, 10 min
Marks after values point to notes of the source that are not given here.

[
  {
    "compound": "COCCOc1ccc2c(c1)ncn2-c1ccc2c([125I])ccc(N3CCC(N)CC3)c2n1 [[^125I]4, reference compound]",
    "endpointValue": "9.32 (2.30) %injected dose/gram tissue"
  },
  {
    "compound": "COCCOc1ccc2c(c1)ncn2-c1ccc2c([77Br])ccc(N3CCC(N)CC3)c2n1 [[^77Br]2]",
    "endpointValue": "8.58 (2.18) %injected dose/gram tissue"
  }
]

Quick check: Radioactivity in Small intestine of COCCOc1ccc2c(c1)ncn2-c1ccc2cccc(N3CCC(NC(=O)c4cccc([77Br])c4)CC3)c2n1 [[^77Br]3] ?
3.28 (0.32) %injected dose/gram tissue

----------
Assay: Biodistribution in ddY mice
Assay type: in vivo
Details: i.v. co-injection, 10 min
Marks after values point to notes of the source that are not given here.
assayReadout: Radioactivity in Liver

Reference set (2 entries):
[
  {
    "molecule": "COCCOc1ccc2c(c1)ncn2-c1ccc2c([77Br])ccc(N3CCC(N)CC3)c2n1 [[^77Br]2]",
    "Radioactivity in Liver": "12.49 (0.64) %injected dose/gram tissue"
  },
  {
    "molecule": "COCCOc1ccc2c(c1)ncn2-c1ccc2cccc(N3CCC(NC(=O)c4cccc([77Br])c4)CC3)c2n1 [[^77Br]3]",
    "Radioactivity in Liver": "25.80 (2.54) %injected dose/gram tissue"
  }
]

Now take the following molecule into account.
Quick check: Radioactivity in Liver of COCCOc1ccc2c(c1)ncn2-c1ccc2c([125I])ccc(N3CCC(N)CC3)c2n1 [[^125I]4, reference compound] ?
11.59 (0.69) %injected dose/gram tissue

----------
Exercise: for every item that follows, state its recorded Radioactivity in Pancreas.
Experiment: Biodistribution in ddY mice
Format: in vivo
Settings: i.v. co-injection, 10 min
Marks after values point to notes of the source that are not given here.

Reference set (3 entries):
[
  {
    "molecule": "COCCOc1ccc2c(c1)ncn2-c1ccc2cccc(N3CCC(NC(=O)c4cccc([125I])c4)CC3)c2n1 [[^125I]5, reference compound]",
    "endpointValue": "2.41 (0.20) %injected dose/gram tissue"
  },
  {
    "molecule": "COCCOc1ccc2c(c1)ncn2-c1ccc2cccc(N3CCC(NC(=O)c4cccc([77Br])c4)CC3)c2n1 [[^77Br]3]",
    "endpointValue": "2.61 (0.20) %injected dose/gram tissue"
  },
  {
    "molecule": "COCCOc1ccc2c(c1)ncn2-c1ccc2c([77Br])ccc(N3CCC(N)CC3)c2n1 [[^77Br]2]",
    "endpointValue": "4.18 (0.38) %injected dose/gram tissue"
  }
]

Now take the following molecule into account.
Quick check: Radioactivity in Pancreas of COCCOc1ccc2c(c1)ncn2-c1ccc2c([125I])ccc(N3CCC(N)CC3)c2n1 [[^125I]4, reference compound] ?
3.52 (0.33)^* %injected dose/gram tissue

----------
Assay: Biodistribution in ddY mice
Assay type: in vivo
Conditions: i.v. co-injection, 1 h
Marks after values point to notes of the source that are not given here.
assayReadout: Radioactivity in Spleen

[
  {
    "compound": "COCCOc1ccc2c(c1)ncn2-c1ccc2cccc(N3CCC(NC(=O)c4cccc([77Br])c4)CC3)c2n1 [[^77Br]3]",
    "Radioactivity in Spleen": "1.47 (0.20) %injected dose/gram tissue"
  },
  {
    "compound": "COCCOc1ccc2c(c1)ncn2-c1ccc2c([125I])ccc(N3CCC(N)CC3)c2n1 [[^125I]4, reference compound]",
    "Radioactivity in Spleen": "1.67 (0.41) %injected dose/gram tissue"
  }
]

Now take the following compound into account.
Quick check: Radioactivity in Spleen of COCCOc1ccc2c(c1)ncn2-c1ccc2c([77Br])ccc(N3CCC(N)CC3)c2n1 [[^77Br]2] ?
1.59 (0.28) %injected dose/gram tissue

----------
Exercise: for every item that follows, state its recorded Radioactivity in Lung.
Experiment: Biodistribution in ddY mice
Assay type: in vivo
Conditions: i.v. co-injection, 24 h
Marks after values point to notes of the source that are not given here.

Would you be so kind as to report Radioactivity in Lung for each listed record?
1. COCCOc1ccc2c(c1)ncn2-c1ccc2c([77Br])ccc(N3CCC(N)CC3)c2n1 [[^77Br]2]
2. COCCOc1ccc2c(c1)ncn2-c1ccc2cccc(N3CCC(NC(=O)c4cccc([77Br])c4)CC3)c2n1 [[^77Br]3]
3. COCCOc1ccc2c(c1)ncn2-c1ccc2c([125I])ccc(N3CCC(N)CC3)c2n1 [[^125I]4, reference compound]

1: 0.29 (0.05) %injected dose/gram tissue; 2: 0.56 (0.07) %injected dose/gram tissue; 3: 0.15 (0.08)^* %injected dose/gram tissue

----------
Test: Biodistribution in ddY mice
Assay type: in vivo
Conditions: i.v. co-injection, 24 h
Marks after values point to notes of the source that are not given here.
assayReadout: Radioactivity in Large intestine

Would you be so kind as to report Radioactivity in Large intestine for each listed record?
1. COCCOc1ccc2c(c1)ncn2-c1ccc2c([125I])ccc(N3CCC(N)CC3)c2n1 [[^125I]4, reference compound]
2. COCCOc1ccc2c(c1)ncn2-c1ccc2cccc(N3CCC(NC(=O)c4cccc([77Br])c4)CC3)c2n1 [[^77Br]3]
3. COCCOc1ccc2c(c1)ncn2-c1ccc2c([77Br])ccc(N3CCC(N)CC3)c2n1 [[^77Br]2]

0.14 (0.02) %injected dose/gram tissue
0.18 (0.00) %injected dose/gram tissue
0.18 (0.03) %injected dose/gram tissue

----------
Experiment: Biodistribution in ddY mice
Format: in vivo
Details: i.v. co-injection, 1 h
assayReadout: Radioactivity in Lung

Reference set (3 entries):
[
  {
    "compound": "COCCOc1ccc2c(c1)ncn2-c1ccc2c([125I])ccc(N3CCC(N)CC3)c2n1 [[^125I]4, reference compound]",
    "Radioactivity in Lung": "3.88 (0.72) %injected dose/gram tissue"
  },
  {
    "compound": "COCCOc1ccc2c(c1)ncn2-c1ccc2c([77Br])ccc(N3CCC(N)CC3)c2n1 [[^77Br]2]",
    "Radioactivity in Lung": "4.32 (0.84) %injected dose/gram tissue"
  },
  {
    "compound": "COCCOc1ccc2c(c1)ncn2-c1ccc2cccc(N3CCC(NC(=O)c4cccc([125I])c4)CC3)c2n1 [[^125I]5, reference compound]",
    "Radioactivity in Lung": "1.07 (0.08) %injected dose/gram tissue"
  }
]

Now take the following compound into account.
Quick check: Radioactivity in Lung of COCCOc1ccc2c(c1)ncn2-c1ccc2cccc(N3CCC(NC(=O)c4cccc([77Br])c4)CC3)c2n1 [[^77Br]3] ?
1.18 (0.10) %injected dose/gram tissue

----------
Exercise: for every item that follows, state its recorded Radioactivity in Kidney.
Experiment: Biodistribution in ddY mice
Format: in vivo
Details: i.v. co-injection, 24 h
Text: In this study, to minimize both the number of mice consumed in the experiment and the potential for experimental errors, we co-injected radiobrominated and radioiodinated compounds into mice[30],[31]. High radioactivity in the liver, small intestine, and large intestine was observed. […] Tissues in mice were resected and weighed. The radioactivity of the tissues was counted by a gamma counter and counts were corrected for background radiation. […]
Marks after values point to notes of the source that are not given here.

[
  {
    "molecule": "COCCOc1ccc2c(c1)ncn2-c1ccc2cccc(N3CCC(NC(=O)c4cccc([77Br])c4)CC3)c2n1 [[^77Br]3]",
    "Radioactivity in Kidney": "0.37 (0.05) %injected dose/gram tissue"
  },
  {
    "molecule": "COCCOc1ccc2c(c1)ncn2-c1ccc2c([77Br])ccc(N3CCC(N)CC3)c2n1 [[^77Br]2]",
    "Radioactivity in Kidney": "0.21 (0.05) %injected dose/gram tissue"
  }
]

Quick check: Radioactivity in Kidney of COCCOc1ccc2c(c1)ncn2-c1ccc2c([125I])ccc(N3CCC(N)CC3)c2n1 [[^125I]4, reference compound] ?
0.13 (0.03) %injected dose/gram tissue
